Measured values drawn from paper PMC6084503 for this set.

Observed pIC50 for FMS kinase (Homo sapiens), reported per entry below.
pIC50: −log10 of the molar value.
endpointLabel: pIC50

>  <molecule>
O=C(Nc1ccc(-n2ccc3c(NC(=O)c4ccccc4)nccc32)cc1)c1cccc(C(F)(F)F)c1 [Compound 1h]

>  <endpointLabel>
pIC50

>  <recordedNumber>
4.97

$$$$
>  <molecule>
O=C(Nc1cccc(-n2ccc3c(NC(=O)c4ccccc4)nccc32)c1)Nc1ccc(Cl)c(C(F)(F)F)c1 [Compound 1d]

>  <endpointLabel>
pIC50

>  <recordedNumber>
5.61

$$$$

A: O=C(Nc1ccc(-n2ccc3c(NC(=O)c4ccccc4)nccc32)cc1)c1ccc(N2CCOCC2)c(C(F)(F)F)c1 [Compound 1j]
B: O=C(Nc1ccc(-n2ccc3c(NC(=O)c4ccccc4)nccc32)cc1)Nc1ccc(Cl)c(C(F)(F)F)c1 [Compound 1c]
Query: I'd appreciate it if you could identify which of A and B has the greater pIC50. Output the label that corresponds to your choice.
Result: B
(B: 6.41, A: 4.48)
